target: CD28 (human) (UniProt P10747); assay: flow cytometry, Expi293F cells transfected with CD28
Entries and their MFI values follow.
Give the number; MFI is assumed, so skip it.

Reference set (2 entries):
BINDER: CD80 A12V/S15F/Y31H/M38L/T41G/M43L/D90N/T130A/P137L/N149D/N152T ECD-Fc (Fc fusion) VIHVTKEVKEVVTLFCGHNVSVEELAQTRIHWQKEKKLVLGMLSGDMNIWPEYKNRTIFDITNNLSIVILALRPSDEGTYECVVLKYEKNAFKREHLAEVTLSVKADFPTPSISDFEIPTSNIRRIICSASGGFPELHLSWLENGEELDAITTTVSQDPETELYAVSSKLDFNMTTNHSFMCLIKYGHLRVNQTFNWNTTKQEHFPDN
VALUE_UNIT: MFI
VAL: 6
--
BINDER: CD80 R29V/M43Q/E81R/L85I/K89R/D90L/A91E/F92N/K93Q/R94G ECD-Fc (Fc fusion) VIHVTKEVKEVATLSCGHNVSVEELAQTVIYWQKEKKMVLTMQSGDMNIWPEYKNRTIFDITNNLSIVILALRPSDEGTYRCVVIKYERLENQGEHLAEVTLSVKADFPTPSISDFEIPTSNIRRIICSTSGGFPEPHLSWLENGEELNAINTTVSQDPETELYAVSSKLDFNMTTNHSFMCLIKYGHLRVNQTFNWNTTKQEHFPDN
VALUE_UNIT: MFI
VAL: 1030

Could you now look at the following binder, please?
Tell me the measured MFI of CD80 V4M/L70Q/A91G/I118V/T120S/T130A/K169E ECD-Fc (Fc fusion) VIHMTKEVKEVATLSCGHNVSVEELAQTRIYWQKEKKMVLTMMSGDMNIWPEYKNRTIFDITNNLSIVIQALRPSDEGTYECVVLKYEKDGFKREHLAEVTLSVKADFPTPSISDFEVPSSNIRRIICSASGGFPEPHLSWLENGEELNAINTTVSQDPETELYAVSSELDFNMTTNHSFMCLIKYGHLRVNQTFNWNTTKQEHFPDN , please.
89
